Biological target: sigma-1 binding site (Cavia porcellus, UniProt Q60492)
Construct: Guinea pig whole membrane preparations (P2 microsomal fraction); from tissue; host or cells: guinea pig membranes (P2 microsomal fraction), as described by Weber et al; brain inferred from the sister test b489
Sequence (Q60492 whole entry): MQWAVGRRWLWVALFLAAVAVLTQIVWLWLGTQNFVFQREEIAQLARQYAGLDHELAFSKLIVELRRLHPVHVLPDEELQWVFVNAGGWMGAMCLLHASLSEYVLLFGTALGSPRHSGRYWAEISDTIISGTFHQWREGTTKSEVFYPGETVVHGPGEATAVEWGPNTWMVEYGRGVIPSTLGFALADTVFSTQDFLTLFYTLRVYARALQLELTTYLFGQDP
Experiment: biochemical
Set-up: species or system guinea pig
Details: sigma-1 binding affinity
Test readout: Ki

Record summary for `c1ccc(CCCCCCCNCCc2ccccc2)cc1` : reported Ki = 1.5 nM

---

Molecular target: sigma-1 binding site (Cavia porcellus)
Construct: Guinea pig whole membrane preparations (P2 microsomal fraction); from tissue; host or cells: guinea pig membranes (P2 microsomal fraction), as described by Weber et al; brain inferred from the sister test b489
Test: biochemical
Parameters: species or system guinea pig
Conditions: Table 16; read-out: Sigma-1 IC50
Test readout: IC50
Kindly write the number and append the unit.

Record summary for NCCCCCC1CCCCC1.O=C(O)C(=O)O [Compound 126, 5-Cyclohexylpentylamine Hydrogen Oxalate] : reported IC50 = 190 nM

Record summary for `CNCCCCCC1CCCCC1` : reported IC50 = 6.8 nM

Record summary for `CN(C)CCCCCC1CCCCC1` : reported IC50 = 0.26 nM

---

Biological target: Dopamine D2 receptor (Rattus norvegicus)
Construct: Rat striatal membranes were prepared from frozen tissue
Sequence (P61169 whole entry): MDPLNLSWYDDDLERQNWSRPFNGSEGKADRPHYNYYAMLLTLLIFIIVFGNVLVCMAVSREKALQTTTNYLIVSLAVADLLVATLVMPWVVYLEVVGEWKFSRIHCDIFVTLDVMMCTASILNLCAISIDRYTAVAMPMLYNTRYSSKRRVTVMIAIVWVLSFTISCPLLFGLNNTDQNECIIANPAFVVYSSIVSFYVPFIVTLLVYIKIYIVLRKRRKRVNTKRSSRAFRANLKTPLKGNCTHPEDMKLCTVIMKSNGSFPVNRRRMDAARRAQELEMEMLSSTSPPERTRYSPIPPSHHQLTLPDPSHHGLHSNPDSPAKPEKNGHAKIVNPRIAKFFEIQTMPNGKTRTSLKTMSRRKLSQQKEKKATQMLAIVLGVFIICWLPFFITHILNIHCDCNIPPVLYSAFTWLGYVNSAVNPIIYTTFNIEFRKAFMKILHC
Experiment: Dopamine D2 receptor binding, [^3 H]domperidone, striatal membranes
Details: Table 4
Test readout: IC50 (nM)
Number only, in nM; omit the unit.

Record summary for `c1ccc(CCCNCCCc2ccccc2)cc1` : reported IC50 = 1680

Record summary for `C[C@H](Cc1ccccc1)NCCCc1ccccc1` : reported IC50 = 4650

Record summary for `c1ccc(CCNCCCc2ccc3ccccc3c2)cc1` : reported IC50 = 1920

Record summary for `c1ccc(N2CCN(CCCc3ccc4ccccc4c3)CC2)cc1` : reported IC50 = 158

---

Biological target: UniProtKB P19327
Sequence (P19327 whole entry): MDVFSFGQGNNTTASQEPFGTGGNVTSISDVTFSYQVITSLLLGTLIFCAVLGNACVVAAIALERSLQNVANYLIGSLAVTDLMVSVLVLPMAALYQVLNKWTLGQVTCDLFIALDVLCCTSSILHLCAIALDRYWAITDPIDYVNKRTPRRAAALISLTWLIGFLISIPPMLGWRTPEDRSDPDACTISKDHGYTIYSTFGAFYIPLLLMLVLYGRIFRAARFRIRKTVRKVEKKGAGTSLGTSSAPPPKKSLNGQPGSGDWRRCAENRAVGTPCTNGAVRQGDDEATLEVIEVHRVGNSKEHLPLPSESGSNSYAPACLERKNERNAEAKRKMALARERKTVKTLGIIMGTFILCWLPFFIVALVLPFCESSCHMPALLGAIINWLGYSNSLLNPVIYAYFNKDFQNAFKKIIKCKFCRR
Test: biochemical
Assay type: binding
Parameters: 47: 529-540 (1986); from tissue; host or cells: brain tissue, inferred from the cited method (rat frontal cortex)
Conditions: Table 5; read-out: 5-HT1A IC50
Test readout: IC50
Kindly write the number and append the unit.

Record summary for C[C@@H](N)Cc1ccc([N+](=O)[O-])cc1 [Compound 30] : reported IC50 = 55000 nM

Record summary for C[C@@H](Cc1ccccc1)N(C)CCc1ccccc1 [Compound 36] : reported IC50 = 1630 nM

Record summary for CC(Cc1ccccc1)NCCCCc1ccccc1 (racemic) [Compound 10] : reported IC50 = 212 nM

Record summary for FC(F)(F)c1cccc(N2CCN(CCc3ccccc3)CC2)c1 [Compound 37] : reported IC50 = 20.3 nM

Record summary for C[C@@H](Cc1ccccc1)NCCCc1ccc2ccccc2c1 [Compound 42] : reported IC50 = 572 nM

---

Biological target: sigma receptor
Test: Sigma receptor binding, [^3 H]DTG, brain membranes (both sigma-1 and sigma-2 sites)
Set-up: species or system guinea pig
Details: Examples 5 and 6; listed as N-benzyl-(5-cyclohexyl)pentylamine; read-out: sigma receptor Ki
Protocol: Sigma receptor binding assays using guinea pig brain membrane homogenates and the radioligand [^3 H]DTG were conducted as described by Weber et al.. […] The protein concentration in the 1-ml final incubation volume was 800 ug/ml, corresponding to 32 mg of brain tissue (original wet weight) and to a tissue concentration within the linear range for specific binding. […] IC50 values were determined by non-linear regression analyis. […]
Test readout: Ki (nM)
Number only, in nM; omit the unit.

Bench note, sigma receptor: `c1ccc(CNCCCCCC2CCCCC2)cc1` , Ki reads 1.3

Data credit: patent US6057371A
